# credit: patent US20260174769A1

ASSAY_TARGET: GDP-bound KRAS protein (aa 1-169), containing both G12D and C118A amino acid substitutions (Homo sapiens, UniProt P01116, C118A/G12D)
Sequence (P01116 1-169 isoform P01116-2 G12D/C118A): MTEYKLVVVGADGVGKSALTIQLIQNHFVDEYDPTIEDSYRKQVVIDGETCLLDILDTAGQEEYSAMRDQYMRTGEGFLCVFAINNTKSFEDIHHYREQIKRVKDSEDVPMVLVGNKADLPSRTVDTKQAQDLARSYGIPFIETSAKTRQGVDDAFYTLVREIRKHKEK
MEASUREMENT_NOTES: KRAS G12D Coupled Nucleotide Exchange Assay
Type: biochemical
CONDITION_DESCRIPTION: 2 hours compound pre-incubation; SOS-mediated nucleotide exchange
Assignment: determine reported IC50 for the given molecules.
Kindly provide the numeric value in nM only, without the unit symbol.

Query: I have this molecule here, O=C1OCCc2c(Cl)cc3[nH]ncc3c2-c2ncc3c(nc(OC[C@@]45CCCN4C[C@H](F)C5)nc3c2F)N2CCC[C@]3(C2)C[C@H](C3)O1 [Example 333] , and I need its recorded IC50.
Result: 127

Query: Same lookup for O=C1OCCCc2c(Cl)cc3[nH]ncc3c2-c2ncc3c(nc(OC[C@H]4CC[C@@H]5COCCN54)nc3c2F)N2CCOC[C@H](C2)O1 [Example 185] , please.
Result: 5

Query: Same lookup for CN1C(=O)OCCCc2c(Cl)cc3[nH]ncc3c2-c2ncc3c(nc(OC[C@@]45CCCN4C[C@H](F)C5)nc3c2F)N2C[C@H](O)C[C@H]1C2 (single isomer, unassigned) [Example 287] , please.
Result: 376

Query: Same lookup for O=C1CCCc2c(Cl)cc3[nH]ncc3c2-c2ncc3c(nc(OC[C@@]45CCCN4C[C@H](F)C5)nc3c2F)N2CCCC(CC1)C2 (mixture of isomers) [Example 236] , please.
Result: 19

Query: Same lookup for CC12COCCN(C1)c1nc(OC[C@@]34CCCN3C[C@H](F)C4)nc3cc(nnc13)-c1c(c(Cl)cc3[nH]ncc13)CCCOC(=O)O2 (single isomer, unassigned) [Example 362] , please.
Result: 5

Query: Same lookup for Cc1cc2[nH]ncc2c2c1CCCCCCC1(O)CCCN(C1)c1nc(OC[C@@]34CCCN3C[C@H](F)C4)nc3c(F)c-2ncc13 (mixture of isomers) [Example 44] , please.
Result: 266

Query: Same lookup for CC1COC(=O)C[C@@H]2CCCN(C2)c2nc(OC[C@@]34CCCN3C[C@H](F)C4)nc3c(F)c(ncc23)-c2c(c(Cl)cc3[nH]ncc23)C1 (some centres unmarked) [Example 91] , please.
Result: 2

Query: Same lookup for C[C@@]12COCCN(C1)c1nc(OC[C@@]34CCCN3C[C@H](F)C4)nc3c(F)c(ncc13)-c1c(c(F)cc3[nH]ncc13)CCCOC(=O)O2 [Example 184] , please.
Result: 2

Query: Same lookup for O=C1OCCc2c(Cl)cc3[nH]ncc3c2-c2ncc3c(nc(OC[C@@]45CCCN4C[C@H](F)C5)nc3c2F)N2CCC[C@]3(C[C@@H](CO3)O1)C2 (single isomer, unassigned) [Example 315] , please.
Result: 2

Query: Same lookup for O=C1OCCc2c(Cl)cc3[nH]ncc3c2-c2ncc3c(nc(OC[C@@]45CCCN4C[C@H](F)C5)nc3c2F)N2CCC[C@@]3(C[C@H](CO3)O1)C2 (single isomer, unassigned) [Example 314] , please.
Result: 11

Query: Same lookup for C[C@@]12CCCN(C1)c1nc(OC[C@@]34CCCN3C[C@H](F)C4)nc3c(F)c(ncc13)-c1cc(O)cc3ccc(F)c(c13)CCCC(=O)O2 [Example 43, bis(2,2,2-trifluoroacetate)] , please.
Result: 2

Query: Same lookup for CC12COCCN(C1)c1nc(OC[C@@]34CCCN3C[C@H](F)C4)nc3cc(nnc13)-c1c(c(Cl)cc3[nH]ncc13)CCCOC(=O)O2 (single isomer, unassigned) [Example 363] , please.
Result: 5630

Query: Same lookup for O=C1N[C@@H]2C[C@H](O)CN(C2)c2nc(OC[C@@]34CCCN3C[C@H](F)C4)nc3c(F)c(ncc23)-c2c(c(Cl)cc3[nH]ncc23)CCCO1 (single isomer, unassigned) [Example 284] , please.
Result: 2

Query: Same lookup for O=C1CCCCc2c(Cl)cc3[nH]ncc3c2-c2ncc3c(nc(OC[C@@]45CCCN4C[C@H](F)C5)nc3c2F)N2CCC3CCN1[C@H]3C2 (mixture of isomers) [Example 60] , please.
Result: 6
